Kindly supply the reported EC50 values for the records listed here.
Target: T1, Human GPA33 on GPA33+ colorectal cancer cell lines (Colo 205, LS 174T, SW 1222) (human, UniProt Q99795 22-319)
T1 construct: Endogenous GPA33 on human colorectal cancer cell lines; also called surface human GPA33; GPA33+ tumor cell lines
T1 sequence: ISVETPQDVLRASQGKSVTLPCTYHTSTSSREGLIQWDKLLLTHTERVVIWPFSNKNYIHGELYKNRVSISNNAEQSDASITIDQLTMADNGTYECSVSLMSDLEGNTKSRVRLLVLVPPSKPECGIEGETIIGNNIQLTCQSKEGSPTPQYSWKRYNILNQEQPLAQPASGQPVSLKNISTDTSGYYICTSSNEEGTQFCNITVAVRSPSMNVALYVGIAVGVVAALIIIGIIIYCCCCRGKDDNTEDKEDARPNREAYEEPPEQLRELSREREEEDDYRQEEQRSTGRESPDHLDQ
Test: cell binding to LS174T Luc cells; IgG format
One number for each entry, in µg/mL.

Completed entries (count: 4):
Binder	Recorded Result
G3A_VK3+VH3 (antibody, IgG1, V domains shown) VH: EVQLVESGGGLVKPGGSLRLSCAASGFAFSTYDMSWVRQAPGKGLEWVATISSGGSYTYYADSVKGRFTISRDSAKNSLYLQMNSLRAEDTAVYYCAPTTVVPFAYWGQGTLVTVSA VL: DIQMTQSPSSLSTSVGDRVTITCKASQNVRTVVAWYQQKPGKAPKTLIYLASNRHSGVPSRFSGSGSGTEFTLTISNLQPEDFATYYCLQHWSYPLTFGSGTKLEVK	0.398
G3A_VK8+VH3 (antibody, V domains shown) VH: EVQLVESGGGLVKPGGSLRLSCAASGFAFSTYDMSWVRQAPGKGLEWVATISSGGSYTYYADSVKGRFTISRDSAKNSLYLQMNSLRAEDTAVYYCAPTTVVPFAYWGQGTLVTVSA VL: DIQMTQSPSSLSASVGDRVTITCKASQNVRTVVAWYQQKPGKAPKRLIYLASNRHTGVPSRFSGSGSGTEFTLTISNLQPEDFADYYCLQHWSYPLTFGSGTKLEVK	0.433
G3A_VK8+VH1 (antibody, V domains shown) VH: EVQLVESGGGLVKPGGSLRLSCAASGFAFSTYDMSWVRQAPGKGLEWVSTISSGGSYTYYADSVKGRFTISRDNAKNSLYLQMNSLRAEDTAVYYCAPTTVVPFAYWGQGTLVTVSA VL: DIQMTQSPSSLSASVGDRVTITCKASQNVRTVVAWYQQKPGKAPKRLIYLASNRHTGVPSRFSGSGSGTEFTLTISNLQPEDFADYYCLQHWSYPLTFGSGTKLEVK	0.454
G3A_VK6+VH1 (antibody, V domains shown) VH: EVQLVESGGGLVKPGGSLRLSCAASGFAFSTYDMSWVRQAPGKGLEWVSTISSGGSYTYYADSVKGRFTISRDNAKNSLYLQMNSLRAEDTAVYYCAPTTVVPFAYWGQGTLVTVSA VL: DIQMTQSPSSLSASVGDRVTITCKASQNVRTVVAWYQQKPGKAPKRLIYLASNRHTGVPSRFSGSGSGTEFTLTISNLQPEDFATYFCLQHWSYPLTFGSGTKLEVK	0.402

Q. Item G3A_VK5+VH1 (antibody, V domains shown) VH: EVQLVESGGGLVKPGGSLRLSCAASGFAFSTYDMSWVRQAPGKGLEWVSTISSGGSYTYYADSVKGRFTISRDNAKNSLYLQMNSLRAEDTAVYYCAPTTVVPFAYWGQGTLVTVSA VL: DIQMTQSPSSLSASVGDRVTITCKASQNVRTVVAWYQQKPGKAPKTLIYLASNRHTGVPSRFSGSGSGTEFTLTISNLQPEDFATYYCLQHWSYPLTFGSGTKLEVK has what recorded EC50?
A. 0.44
